- test system: HLA-A*02:01
- experiment: IEDB peptide-MHC binding, purified MHC/competitive/radioactivity; filed as Kd, often an IC50 or EC50 that approximates it; bounds were set here for any values at or beyond the usual limits of such assays
- protocol conditions: source organism: Dengue virus 4 Philippines/H241/1956
value kind: Kd (nM)
Value expressed in nM; do not type the unit.

MVIGMAMTTV :: 9.36

For the sequence shown here, TMTLWYMWQV , give the reported Kd.
28.8

====

- test system: HLA-A*02:50
- experiment: IEDB peptide-MHC binding, purified MHC/competitive/fluorescence; filed as Kd, often an IC50 or EC50 that approximates it; bounds were set here for any values at or beyond the usual limits of such assays
- protocol conditions: source organism: Pseudomonas aeruginosa UCBPP-PA14
value kind: Kd (nM)
Value expressed in nM; do not type the unit.

For the sequence shown here, FLDDASNSA , give the reported Kd.
5.3
